# target or system: F508del in NIH 3T3 cells (Homo sapiens, UniProt P13569, DEL508-508)
# Construct: expressed in transfected cells
# Sequence (P13569 with tags, fused parts or gaps DEL508-508): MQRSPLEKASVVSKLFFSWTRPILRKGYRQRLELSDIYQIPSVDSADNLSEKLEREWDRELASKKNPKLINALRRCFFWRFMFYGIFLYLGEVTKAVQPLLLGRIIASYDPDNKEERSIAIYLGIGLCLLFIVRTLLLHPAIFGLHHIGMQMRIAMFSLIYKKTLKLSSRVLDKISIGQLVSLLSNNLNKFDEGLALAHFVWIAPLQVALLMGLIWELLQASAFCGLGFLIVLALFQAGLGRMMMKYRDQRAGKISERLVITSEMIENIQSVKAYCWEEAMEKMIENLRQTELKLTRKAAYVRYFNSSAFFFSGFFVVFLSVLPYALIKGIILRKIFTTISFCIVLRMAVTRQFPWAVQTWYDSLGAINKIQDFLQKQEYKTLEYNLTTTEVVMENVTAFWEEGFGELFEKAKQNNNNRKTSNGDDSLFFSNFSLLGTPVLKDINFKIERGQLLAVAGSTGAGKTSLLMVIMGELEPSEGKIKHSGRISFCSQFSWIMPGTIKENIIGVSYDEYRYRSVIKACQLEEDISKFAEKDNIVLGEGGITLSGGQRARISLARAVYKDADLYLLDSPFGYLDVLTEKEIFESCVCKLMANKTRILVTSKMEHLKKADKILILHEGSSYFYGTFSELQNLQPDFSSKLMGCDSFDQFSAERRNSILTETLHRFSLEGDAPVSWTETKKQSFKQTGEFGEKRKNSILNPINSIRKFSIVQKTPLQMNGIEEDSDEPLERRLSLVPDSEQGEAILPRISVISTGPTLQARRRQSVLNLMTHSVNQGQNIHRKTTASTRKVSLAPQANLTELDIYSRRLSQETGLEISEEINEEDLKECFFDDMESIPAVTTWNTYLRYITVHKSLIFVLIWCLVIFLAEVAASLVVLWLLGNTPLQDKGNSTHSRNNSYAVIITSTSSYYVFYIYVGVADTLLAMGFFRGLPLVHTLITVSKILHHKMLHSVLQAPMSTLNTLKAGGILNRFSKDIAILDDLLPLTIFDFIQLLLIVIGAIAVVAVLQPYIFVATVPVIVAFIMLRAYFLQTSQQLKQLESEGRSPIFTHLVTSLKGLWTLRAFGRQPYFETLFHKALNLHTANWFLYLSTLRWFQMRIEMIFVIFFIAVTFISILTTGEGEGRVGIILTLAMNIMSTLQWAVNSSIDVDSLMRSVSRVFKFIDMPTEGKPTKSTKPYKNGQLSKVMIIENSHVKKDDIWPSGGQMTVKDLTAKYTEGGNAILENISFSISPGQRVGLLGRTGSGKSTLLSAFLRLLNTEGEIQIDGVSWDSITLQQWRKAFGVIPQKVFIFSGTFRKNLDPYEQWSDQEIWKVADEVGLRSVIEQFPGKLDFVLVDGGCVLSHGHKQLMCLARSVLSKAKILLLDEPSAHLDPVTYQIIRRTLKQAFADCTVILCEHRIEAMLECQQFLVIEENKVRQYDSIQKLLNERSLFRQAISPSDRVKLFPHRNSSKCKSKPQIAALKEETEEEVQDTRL
# test method notes: 3T3 assay: membrane potential optical assay for F508del correction
# Format: cell-based, mouse
# test conditions: NIH3T3; F508del NIH 3T3 cells; efficacy compared to lumacaftor in combination with acutely added 300 nM Ivacaftor; read-out: 3T3 Max Activity (%)
// values below are reported Emax

A selection of reference data follows.
compound	result
Cc1cc(C)cc(-n2nc(NS(=O)(=O)c3ccccc3)c3cc(Br)cnc32)c1	30 to 60%
O=S(=O)(Nc1nc2c(s1)Cc1ccccc1-2)c1ccccc1	30 to 60%
C=C(C)c1cnc2c(c1)c(NS(=O)(=O)c1ccccc1)nn2-c1cc(C)cc(C)c1	30 to 60%
CC(C)C(C)n1nc(NS(=O)(=O)c2ccccc2)c2ccc(C(C)(C)C)nc21 (centres unmarked)	< 30%
Cc1ccccc1Oc1nc(NS(=O)(=O)c2cnn(C)c2)nc2c1C(C)(C)CCC2	> 60%
COc1cccc(S(=O)(=O)Nc2nn(-c3c(C)cc(C)cc3C)c3nc(C(C)(C)C)ccc23)c1	30 to 60%

Prompt line: Return value of Emax for input Cc1ccc(-n2ncc3c2CC(C)(C)CC3NS(=O)(=O)c2ccccc2)cc1 (centres unmarked) , no commentary.
Response line: < 30%

Prompt line: Tell me measured Emax for `Cc1ccccc1Oc1nc(NS(=O)(=O)c2cnn(C)c2)nc2c1CCCC2(C)C` please.
Response line: 30 to 60%

Prompt line: Provide Emax value for the following compound: `COc1cccc(OC)c1S(=O)(=O)Nc1nn(-c2c(C)cc(C)cc2C)c2nc(C(C)(C)C)ccc12`
Response line: < 30%

Prompt line: Could you please provide reported Emax for `COc1ccc(OC)c(S(=O)(=O)Nc2nn(-c3c(C)cc(C)cc3C)c3nc(C(C)(C)C)ccc23)c1` ? Thanks!
Response line: 30 to 60%

Prompt line: Annotate the compound `Cc1cc(C)c(-n2nc(NS(=O)(=O)c3cccc(Cl)c3)c3ccc(C(C)(C)C)nc32)c(C)c1` with its measured Emax.
Response line: < 30%

Prompt line: Find the measured Emax of `O=S(=O)(Nc1ccc2cc[nH]c2n1)c1ccccc1` and report it.
Response line: < 30%

Prompt line: In one line, give reported Emax of the entry `Cc1cc(C)c(-n2nc(NS(=O)(=O)c3ncc[nH]3)c3ccc(C(C)(C)C)nc32)c(C)c1` .
Response line: 30 to 60%

Prompt line: Query Emax for `CC(C)(C)c1ccc2c(NS(=O)(=O)c3ccccc3)nn(-c3ccccc3)c2n1`
Response line: 30 to 60%

Prompt line: Identify the reported Emax for the following entry. `Cc1cc(C)c(-n2nc(NS(=O)(=O)c3ccccc3C)c3ccc(C(C)(C)C)nc32)c(C)c1`
Response line: < 30%

Prompt line: Kindly indicate its recorded Emax. Item: `Cc1cc(C)c(-n2nc(NS(=O)(=O)c3ccccc3)c3cccnc32)c(C)c1`
Response line: 30 to 60%

Prompt line: Supply measured Emax of `COc1ccc(N)cc1S(=O)(=O)Nc1nn(-c2c(C)cc(C)cc2C)c2nc(C(C)(C)C)ccc12` in your reply.
Response line: 30 to 60%

Hey, just so you know, these numbers are from patent US20230373974A1.
